TARGET: human TLR7 (Homo sapiens, UniProt Q9NYK1)
Sequence (Q9NYK1 27-1049): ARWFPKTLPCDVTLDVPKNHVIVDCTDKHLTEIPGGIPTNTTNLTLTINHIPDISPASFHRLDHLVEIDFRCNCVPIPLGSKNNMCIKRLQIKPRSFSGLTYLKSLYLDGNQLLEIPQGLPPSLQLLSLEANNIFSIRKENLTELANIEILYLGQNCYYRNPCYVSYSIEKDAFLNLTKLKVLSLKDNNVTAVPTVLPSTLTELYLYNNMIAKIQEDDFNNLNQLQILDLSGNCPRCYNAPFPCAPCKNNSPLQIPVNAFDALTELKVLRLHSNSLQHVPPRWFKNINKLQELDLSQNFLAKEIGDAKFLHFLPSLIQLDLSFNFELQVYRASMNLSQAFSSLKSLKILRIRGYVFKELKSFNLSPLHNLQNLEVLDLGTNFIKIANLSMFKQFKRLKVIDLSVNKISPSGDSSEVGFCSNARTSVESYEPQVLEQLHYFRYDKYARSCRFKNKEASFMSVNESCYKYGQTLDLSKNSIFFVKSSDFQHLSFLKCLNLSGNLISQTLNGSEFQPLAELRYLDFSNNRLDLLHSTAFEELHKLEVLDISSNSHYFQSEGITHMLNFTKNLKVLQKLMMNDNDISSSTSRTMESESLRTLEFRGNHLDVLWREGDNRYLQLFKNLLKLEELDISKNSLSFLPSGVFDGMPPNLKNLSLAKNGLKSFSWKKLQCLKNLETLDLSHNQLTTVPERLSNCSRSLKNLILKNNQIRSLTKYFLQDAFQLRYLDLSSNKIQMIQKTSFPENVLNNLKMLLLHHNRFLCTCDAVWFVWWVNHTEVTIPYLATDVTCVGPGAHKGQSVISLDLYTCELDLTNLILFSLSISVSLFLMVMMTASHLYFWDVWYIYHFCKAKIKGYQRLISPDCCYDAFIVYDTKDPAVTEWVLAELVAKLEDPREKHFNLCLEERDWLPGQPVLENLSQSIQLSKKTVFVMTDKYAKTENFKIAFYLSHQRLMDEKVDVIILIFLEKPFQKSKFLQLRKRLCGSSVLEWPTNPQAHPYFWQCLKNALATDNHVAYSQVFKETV
EXPERIMENT NOTES: TLR7 inhibition reporter assay (HEK-Blue cells, SEAP reporter, gardiquimod stimulation)
CONDITION LABEL: HEK-Blue cells overexpressing human TLR7, SEAP reporter, gardiquimod 7.5 μM
pIC50: −log10 of the molar value.
So basically every entry gets a class from its pIC50, ranges being LOW: < 8; MID: ≥ 8 and < 9; HIGH: ≥ 9

| MOLECULE | CATEGORY LABEL |
| --- | --- |
| Cc1c(-c2[nH]c3ccc(C4CC5CN(C6CCOCC6)CC5C4)cc3c2C(C)C)cn2cnnc2c1C (stereo not drawn) | LOW |
| COCCN1CCCC(c2ccc3[nH]c(-c4cc(OC)c5ncnn5c4)c(C(C)C)c3c2)C1 (stereo not drawn) [Example 251] | MID |
| CC(C)c1c(-c2ccnc3[nH]ncc23)[nH]c2ccc(CC3CCNCC3)cc12 | LOW |
| CNC(=O)CNC1CCC(c2ccc3[nH]c(-c4cc(C)nc(C)c4)c(C(C)C)c3c2)CC1 (single isomer, unassigned) [Example 179] | MID |
| Cc1cc(-c2[nH]c3ccc(C4CCC(NC5COC5)CC4)cc3c2C(C)C)cn2ncnc12 (stereo not drawn) [Example 59] | HIGH |
| Cc1cc(-c2[nH]c3ccc(C4CN(CCS(C)(=O)=O)CCO4)cc3c2C(C)C)cc(C)n1 (stereo not drawn) [Example 351] | LOW |
| Cc1c(-c2[nH]c3ccc(C4CN(CCS(C)(=O)=O)C4)cc3c2C(C)C)cn(C)c(=O)c1C | LOW |
| COc1cc(-c2[nH]c3ccc(C4CCC(N(C)C(C)C)CC4)cc3c2C(C)C)cn2ncnc12 (single isomer, unassigned) [Example 6] | HIGH |
| COc1cc(-c2[nH]c3ccc(C4CC(N(C)CCS(C)(=O)=O)C4)cc3c2C(C)C)cn2ncnc12 (stereo not drawn) [Example 587] | MID |
| Cc1cc(-c2[nH]c3ccc(C4CN(C(C)C)CCO4)cc3c2C(C)C)cc(C)n1 (stereo not drawn) [Example 305] | LOW |
| CNC1CCC(c2ccc3[nH]c(-c4cc(C)nc(C)c4)c(C(C)C)c3c2)CC1 (single isomer, unassigned) [Example 51] | MID |
| CCc1c(-c2ccnc(C)c2)[nH]c2ccc(CN)cc12 | LOW |
| CCc1c(-c2ccnc(C)c2)[nH]c2ccc(CNC(=O)C3CCNC3)cc12 (stereo not drawn) | LOW |
| COc1cc(-c2[nH]c3ccc(C4CCC(NC5COC5)CC4)cc3c2C(C)C)cn2ncnc12 (stereo not drawn) [Example 64] | HIGH |
| CNCC(=O)N1CCCC(c2ccc3[nH]c(-c4cn5ncnc5c(C)c4C)c(C(C)C)c3c2)C1 (stereo not drawn) [Example 213] | MID |
| COCCN(C)C1CCC(c2ccc3[nH]c(-c4cc(OC)c5ncnn5c4)c(C(C)C)c3c2)CC1 (single isomer, unassigned) [Example 79] | MID |
| CCc1c(-c2ccnc(C)c2)[nH]c2ccc(CNC(=O)OCC3CCNCC3)cc12 | LOW |
| Cc1cc(-c2[nH]c3ccc(CCN4CCOCC4)cc3c2C(C)C)cc(C)n1 | LOW |

====

TARGET: human TLR8 (Homo sapiens, UniProt Q9NR97)
Sequence (Q9NR97 27-1041): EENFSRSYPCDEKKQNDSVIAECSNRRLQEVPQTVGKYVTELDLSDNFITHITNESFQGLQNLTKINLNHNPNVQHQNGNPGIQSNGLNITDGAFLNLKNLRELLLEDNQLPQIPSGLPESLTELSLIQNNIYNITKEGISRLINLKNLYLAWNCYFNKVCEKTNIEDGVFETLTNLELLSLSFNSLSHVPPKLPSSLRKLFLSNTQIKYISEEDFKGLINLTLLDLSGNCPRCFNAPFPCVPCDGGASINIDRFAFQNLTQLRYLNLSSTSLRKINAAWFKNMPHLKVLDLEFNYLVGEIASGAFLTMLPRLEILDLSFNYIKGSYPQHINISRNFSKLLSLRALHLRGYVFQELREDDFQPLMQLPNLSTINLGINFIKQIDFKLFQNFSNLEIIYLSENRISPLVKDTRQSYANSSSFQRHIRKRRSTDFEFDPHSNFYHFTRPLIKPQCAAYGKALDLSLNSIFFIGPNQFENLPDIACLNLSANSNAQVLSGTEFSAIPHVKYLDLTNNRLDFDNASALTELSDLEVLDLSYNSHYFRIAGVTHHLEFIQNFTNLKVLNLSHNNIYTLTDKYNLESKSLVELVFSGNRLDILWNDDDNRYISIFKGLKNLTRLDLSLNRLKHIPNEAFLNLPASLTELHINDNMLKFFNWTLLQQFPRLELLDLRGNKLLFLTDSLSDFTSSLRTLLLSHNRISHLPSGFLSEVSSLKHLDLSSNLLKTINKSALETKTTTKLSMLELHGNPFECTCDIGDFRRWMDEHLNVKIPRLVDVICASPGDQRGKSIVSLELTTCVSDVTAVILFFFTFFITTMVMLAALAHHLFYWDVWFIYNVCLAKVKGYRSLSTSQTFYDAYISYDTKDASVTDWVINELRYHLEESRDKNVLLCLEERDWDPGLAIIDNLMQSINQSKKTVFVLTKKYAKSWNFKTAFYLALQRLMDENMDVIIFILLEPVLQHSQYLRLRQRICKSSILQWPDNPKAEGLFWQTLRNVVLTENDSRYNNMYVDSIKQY
EXPERIMENT NOTES: TLR8 inhibition reporter assay (HEK-Blue cells, SEAP reporter, R848 stimulation)
CONDITION LABEL: HEK-Blue cells overexpressing human TLR8, SEAP reporter, R848 15.9 μM

| MOLECULE | TARGET | IC50 |
| --- | --- | --- |
| Cc1cc(-c2[nH]c3ccc(C4CCC(NC5CC5)CC4)cc3c2C(C)C)cn2ncnc12 (single isomer, unassigned) [Example 15] | human TLR8 (Homo sapiens, UniProt Q9NR97) | 8.9 nM |
| Cc1cc(-c2[nH]c3ccc(C4CCC(NC5(C)COC5)CC4)cc3c2C(C)C)cn2ncnc12 (single isomer, unassigned) [Example 46] | human TLR8 (Homo sapiens, UniProt Q9NR97) | 0.84 nM |
| Cc1c(-c2[nH]c3ccc(C4CC5CN(C6CCOCC6)CC5C4)cc3c2C(C)C)cn2cnnc2c1C (stereo not drawn) | human TLR8 (Homo sapiens, UniProt Q9NR97) | 3130 nM |
| COc1cc(-c2[nH]c3ccc(C4CC5CNCC5C4)cc3c2C(C)C)cn2ncnc12 (stereo not drawn) | human TLR8 (Homo sapiens, UniProt Q9NR97) | 11 nM |
| Cc1cc(-c2[nH]c3ccc(C4CCCN(CC(=O)N(C)C)C4)cc3c2C(C)C)cc(C)n1 (stereo not drawn) [Example 235] | human TLR8 (Homo sapiens, UniProt Q9NR97) | 12 nM |
| Cc1cc(-c2[nH]c3ccc(C4CCCN(Cc5c[nH]c(C)n5)C4)cc3c2C(C)C)cc(C)n1 (stereo not drawn) [Example 247] | human TLR8 (Homo sapiens, UniProt Q9NR97) | 6.9 nM |
| CCN(C)C1CCC(c2ccc3[nH]c(-c4cc(OC)c5ncnn5c4)c(C(C)C)c3c2)CC1 (single isomer, unassigned) [Example 66] | human TLR8 (Homo sapiens, UniProt Q9NR97) | 4.4 nM |
| Cc1c(-c2[nH]c3ccc(C4CCC(N5CC6(COC6)C5)CC4)cc3c2C(C)C)cn2ncnc2c1C (stereo not drawn) [Example 95] | human TLR8 (Homo sapiens, UniProt Q9NR97) | 3.6 nM |
| Cc1c(-c2[nH]c3ccc(CC4CN(CCS(C)(=O)=O)C4)cc3c2C(C)C)cn(C)c(=O)c1C | human TLR8 (Homo sapiens, UniProt Q9NR97) | 7 nM |

====

TARGET: human TLR9 (Homo sapiens)
Sequence (Q9NR96 26-1032): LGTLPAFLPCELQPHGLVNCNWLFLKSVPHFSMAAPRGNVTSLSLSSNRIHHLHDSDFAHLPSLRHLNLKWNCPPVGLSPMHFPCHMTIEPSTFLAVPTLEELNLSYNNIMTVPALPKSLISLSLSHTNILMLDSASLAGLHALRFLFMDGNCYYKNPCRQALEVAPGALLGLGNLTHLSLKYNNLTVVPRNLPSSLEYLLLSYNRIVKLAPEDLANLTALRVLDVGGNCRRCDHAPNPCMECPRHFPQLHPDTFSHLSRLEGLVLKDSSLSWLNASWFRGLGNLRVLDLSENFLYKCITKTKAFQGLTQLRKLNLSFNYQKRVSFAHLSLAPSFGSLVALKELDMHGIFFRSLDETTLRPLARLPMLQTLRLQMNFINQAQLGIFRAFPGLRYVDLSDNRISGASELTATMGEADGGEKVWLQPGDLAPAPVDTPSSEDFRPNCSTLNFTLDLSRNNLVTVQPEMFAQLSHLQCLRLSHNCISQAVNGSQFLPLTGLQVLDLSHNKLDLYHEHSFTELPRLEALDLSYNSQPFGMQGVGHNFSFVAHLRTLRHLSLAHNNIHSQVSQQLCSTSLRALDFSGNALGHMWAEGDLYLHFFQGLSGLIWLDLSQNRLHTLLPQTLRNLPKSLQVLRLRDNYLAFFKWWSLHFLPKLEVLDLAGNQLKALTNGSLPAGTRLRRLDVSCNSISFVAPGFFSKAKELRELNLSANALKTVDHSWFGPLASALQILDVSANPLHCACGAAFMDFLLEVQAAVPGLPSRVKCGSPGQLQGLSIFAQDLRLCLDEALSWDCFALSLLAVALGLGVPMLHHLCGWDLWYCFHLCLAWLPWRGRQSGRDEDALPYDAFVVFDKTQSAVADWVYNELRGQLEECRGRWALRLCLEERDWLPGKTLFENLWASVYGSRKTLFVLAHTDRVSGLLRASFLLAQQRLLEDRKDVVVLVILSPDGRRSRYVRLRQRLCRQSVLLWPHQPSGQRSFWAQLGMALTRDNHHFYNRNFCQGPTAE
EXPERIMENT NOTES: TLR9 inhibition reporter assay (HEK-Blue cells, SEAP reporter, ODN2006 stimulation)
CONDITION LABEL: HEK-Blue cells overexpressing human TLR9, SEAP reporter, ODN2006 5 nM
Description: TLR7/8/9 Inhibition Reporter Assays HEK-Blue™-cells (Invivogen) overexpressing human TLR7, TLR8 or TLR9 receptors were used for screening inhibitors of these receptors using an inducible SEAP (secreted embryonic alkaline phosphatase) reporter gene under the control of the IFN-β minimal promoter fused to five NF-κB and AP-1-binding sites. […]
pIC50: −log10 of the molar value.
pIC50 for assorted compounds

| COMPOUND | pIC50 |
| --- | --- |
| Cc1c(-c2[nH]c3ccc(C4CN(CC(N)=O)CCO4)cc3c2C(C)C)cn2ncnc2c1C (stereo not drawn) [Example 320] | < 4.30 |
| Cc1c(-c2[nH]c3ccc(C4CC(NC5COC5)C4)cc3c2C(C)C)cn(C)c(=O)c1C (stereo not drawn) [Example 496] | < 4.30 |
| Cc1cc(-c2[nH]c3ccc(C4CCC(O)CC4)cc3c2C(C)C)ccn1 (stereo not drawn) [Example 174] | < 4.30 |
